These entries and their values trace back to the SangsterLogP compilation.

reportedMetric: logP
Answer field: number only, no words.

Recorded result, COc1cnc(NS(=O)(=O)c2ccc(N)cc2)nc1 , logP: 0.41
